Recorded measurements of cytotoxicity at 70.5 h, one per entry
Test: Human HepG2 cell viability assay in 384 well format
Type: toxicity, cell-based
Design: dose 125 nL, time 70.5 hour; concentration not given beside the values
Conditions: HepG2 cells, read-out: Inhibition

# molecule, cytotoxicity at 70.5 h [%]
rows = [
    ("CCOc1ccnc(N2CCN(C(=O)c3ccn(C)c(=O)c3)CC2)n1", -1.73),
    ("CCOCC(O)CN1CCN(C(=O)Cc2cccc(Cl)c2)CC1 (stereo unspecified)", -5.95),
    ("CCCN(CC1CC1)S(=O)(=O)c1ccc(NC(C)=O)cc1", -1.65),
    ("CC1(C)OCC2(CO1)CN(S(=O)(=O)c1ccc(Cl)s1)C2", -1.76),
    ("O=S(=O)(Cc1ccc(Br)cc1)NCCO", -0.457),
    ("Cn1cc(N2CCN(c3ccc(C#N)cc3Br)CC2=O)cn1", -4.85),
    ("CN(C)CCN(Cc1ccc(C(F)(F)F)cc1)C(=O)c1cc[nH]n1", 16.2),
    ("CCSc1ccc(C(=O)N2CC[C@](O)(CC)[C@H](O)C2)s1", 22.5),
    ("COCC(=O)N1CCC(c2csc(NC(C)=O)n2)CC1", -8.01),
    ("COc1ccc(-n2c(SCC(=O)O)nnc2-c2cn[nH]c2)cc1", 15.3),
    ("O=C1C(NCc2ccc3c(c2)CCO3)CCN1Cc1ccccc1 (stereo unspecified)", -14.7),
    ("CC(C)Oc1ccc(-c2csc(Cn3ccc(=O)[nH]c3=O)n2)cc1", -0.0528),
    ("Cn1cnnc1C1CCN(C(=O)Cc2ccc3c(c2)OCCO3)CC1", -2.32),
    ("CC(C)(C)c1nnc(CN2CCN(S(C)(=O)=O)CC2)o1", -2.04),
    ("Cn1cccc1-c1cc(C(=O)N2CCCC2c2ccc(C(N)=O)s2)[nH]n1 (stereo unspecified)", -2.9),
    ("CNC(=O)c1cn2cc(-c3ccc(F)cc3)n(CC=C(C)C)c(=O)c2n1", 19.4),
    ("CCCc1cc(C(=O)NCCCC(=O)N2Cc3ccccc3C2)[nH]n1", -6.02),
    ("Cc1cc(-n2cccn2)ccc1CN1CCC(O)(CN2CCCCC2)C1 (stereo unspecified)", 1.06),
    ("Cc1nc(CN2CCN(CC(=O)Nc3c(C)cccc3C)CC2)no1", -5.01),
    ("CCCS(=O)(=O)N1CCOC2(COCCN(C(C)=O)C2)C1 (stereo unspecified)", -8.79),
    ("CN(C)c1ccc(C(=O)N2CCCC2c2ccc(Cl)cc2)nn1 (stereo unspecified)", -11.3),
    ("Cc1nc(CN2CCCC(N(C)CCCc3ccccc3)C2)no1 (stereo unspecified)", -5.01),
    ("Cc1ccc2nc(C3CCN(CCO)CC3)nn2c1", 21.1),
    ("N#Cc1ccc(CN2CCCC3(Cc4ccccc4CNC3=O)C2)cc1 (stereo unspecified)", 31.4),
    ("O=C(c1ccon1)N1CCN(c2ccncc2Cl)CC1", -4.94),
    ("O=C(NC1CCCN(c2ccc(OC(F)F)cc2)C1)c1cnc[nH]1 (stereo unspecified)", -11.2),
    ("CC(C)c1noc(CS(=O)(=O)Cc2nc(C(C)C)no2)n1", -7.1),
    ("CN(CCCc1ccc(C(F)(F)F)cc1)Cc1nccn1C", -12),
    ("CCN(Cc1nc(COC)no1)Cc1ccccc1OCC(=O)O", 20),
    ("Cn1ncc2c(=O)[nH]c(CN(Cc3ccco3)C3CCCC3)nc21", -0.279),
    ("Cc1ncc(CN(C)C(=O)Nc2cccc(CN3CCOC3=O)c2)s1", -3.49),
]

All figures here come from ChEMBL document CHEMBL3507680.
